List of fold change of 2-Phenylethylamine concentration values.
- System: Ruminococcus gnavus DSM 108212
- Method Description: fold change of 2-Phenylethylamine concentration vs plate DMSO controls (fold change (ratio)); higher = more amine produced, active = hit call of the paper (significant change in both replicates, either direction)
- Condition Details: 20 µM; incubation time: 27 h, anaerobic, 37 °C
Answer as a number with no unit attached.

Given the entry CO[C@]12C[C@@H](COC(=O)c3cncc(Br)c3)CN(C)[C@@H]1Cc1cn(C)c3cccc2c13 [Nicergoline] , what fold change of 2-Phenylethylamine concentration was observed with Ruminococcus gnavus DSM 108212? 0.888

====

- Test system: Klebsiella aerogenes DSM 30053
- Method Description: fold change of Histamine concentration vs plate DMSO controls (fold change (ratio)); higher = more amine produced, active = hit call of the paper (significant change in both replicates, either direction)
- Condition Details: 20 µM; incubation time: 27 h, anaerobic, 37 °C
Counter-ions that a name gives are not always drawn.
Quick rule: fold change of Histamine concentration of at least 1 means YES, below that means NO.

Compound	Classification
CS(=O)(=O)c1cc(C(F)(F)F)ccc1C(=O)c1cnoc1C1CC1	NO
CC(NC(C)(C)C)C(=O)c1cccc(Cl)c1 (stereo not given) [Bupropion hydrochloride]	YES
COc1cc([C@@H]2c3cc4c(cc3[C@H](O)[C@H]3COC(=O)[C@H]23)OCO4)cc(OC)c1OC	NO

Here is the next item to consider.
Decide: is the reported value of fold change of Histamine concentration for Oc1ccc(Cl)cc1Cc1cc(Cl)ccc1O [Dichlorophen] equal to or greater than 1? YES

====

- Test system: Clostridium sporogenes DSM 1664
- Method Description: fold change of Tryptamine concentration vs plate DMSO controls (fold change (ratio)); higher = more amine produced, active = hit call of the paper (significant change in both replicates, either direction)
- Condition Details: 20 µM; incubation time: 27 h, anaerobic, 37 °C
Property Label: fold change of Tryptamine concentration
Answer as a number with no unit attached.

Please review the following examples before continuing.
Compound	fold change of Tryptamine concentration
Cc1cc(C(F)(C(F)(F)F)C(F)(F)F)ccc1NC(=O)c1cccc(I)c1C(=O)NC(C)(C)CS(C)(=O)=O	0.921
CC(C)c1c(CN(C)C(C)Cc2ccccc2)n(C)n(-c2ccccc2)c1=O (configuration not stated)	0.954
Cc1cccc2sc3nncn3c12	0.982
CN/C(=N\[N+](=O)[O-])NCc1cnc(Cl)s1	0.953
CCCCc1c(C)nc(NCC)nc1OS(=O)(=O)N(C)C	1.06
CCCCCC[C@H]1C(=O)O[C@H](C)[C@H](NC(=O)c2cccc(NC=O)c2O)C(=O)O[C@@H](C)[C@@H]1OC(=O)CC(C)C [Antimycin A]	0.974

# next compound below
Recorded fold change of Tryptamine concentration for CC1(C)C(C=C(Cl)Cl)C1C(=O)OC(C#N)c1ccc(F)c(Oc2ccccc2)c1 (mixture of isomers) , please? 0.985

====

- Test system: Escherichia coli IAI1
- Method Description: fold change of Cadaverine concentration vs plate DMSO controls (fold change (ratio)); higher = more amine produced, active = hit call of the paper (significant change in both replicates, either direction)
- Condition Details: 20 µM; incubation time: 27 h, anaerobic, 37 °C
Structures can show the parent of a compound that is named as a salt.
Quick rule: fold change of Cadaverine concentration of at least 1 means fulfilled, below that means not fulfilled.

Decide: is the reported value of fold change of Cadaverine concentration for S=C(NC1CCCCC1)N1CCC(c2cnc[nH]2)CC1 [Thioperamide maleate] equal to or greater than 1? not fulfilled

Decide: is the reported value of fold change of Cadaverine concentration for CC1C=CC=CCCC=CC=CC=CC=CC(OC2OC(C)C(O)C(N)C2O)CC2OC(O)(CC(O)C(O)CCC(O)CC(O)CC(O)CC(=O)OC(C)C(C)C1O)CC(O)C2C(=O)O (stereo not given) equal to or greater than 1? fulfilled

Decide: is the reported value of fold change of Cadaverine concentration for `CCc1cc(C)cc(CC)c1-c1c(OC(=O)C(C)(C)C)n2n(c1=O)CCOCC2` equal to or greater than 1? fulfilled

Decide: is the reported value of fold change of Cadaverine concentration for `CC1=NNC(=O)N(/N=C/c2cccnc2)C1` equal to or greater than 1? fulfilled

Decide: is the reported value of fold change of Cadaverine concentration for `O=C1C=C(N(Cc2ccc(Cl)nc2)CC(F)F)CO1` equal to or greater than 1? not fulfilled

Decide: is the reported value of fold change of Cadaverine concentration for `c1cc2c3c(cccc3c1)CC2` equal to or greater than 1? fulfilled

Decide: is the reported value of fold change of Cadaverine concentration for `C[C@]12CC[C@H](O)CC1=CC[C@@H]1[C@@H]2CC[C@]2(C)C(=O)CC[C@@H]12` equal to or greater than 1? fulfilled

Decide: is the reported value of fold change of Cadaverine concentration for `CN1C[C@H](CNC(=O)OCc2ccccc2)C[C@@H]2c3cccc4c3c(cn4C)C[C@H]21` equal to or greater than 1? fulfilled

Decide: is the reported value of fold change of Cadaverine concentration for `COc1ccc(-c2ccccc2)cc1NNC(=O)OC(C)C` equal to or greater than 1? fulfilled

Decide: is the reported value of fold change of Cadaverine concentration for `C[C@]12Cc3c[nH]nc3C[C@@H]1CC[C@@H]1[C@@H]2CC[C@@]2(C)[C@H]1CC[C@]2(C)O` equal to or greater than 1? not fulfilled

Decide: is the reported value of fold change of Cadaverine concentration for CN1[C@@H]2CC[C@H]1C[C@@H](OC(=O)C(CO)c1ccccc1)C2 (stereo not given in full) [Atropine sulfate monohydrate] equal to or greater than 1? not fulfilled

Decide: is the reported value of fold change of Cadaverine concentration for CC(C)(C)NCC(O)c1ccccc1Cl (stereo not given) [Tulobuterol hydrochloride] equal to or greater than 1? not fulfilled

Decide: is the reported value of fold change of Cadaverine concentration for `COc1ccccc1N` equal to or greater than 1? not fulfilled

Decide: is the reported value of fold change of Cadaverine concentration for `CC1(C(=O)Nc2ccc(O)c(Cl)c2Cl)CCCCC1` equal to or greater than 1? fulfilled
